System: HepG2 cells
ASSAY: MTT proliferation assay, HepG2
Assay type: cell-based
MEASUREMENT_SETUP: Homo sapiens, HepG2, 48 h
pIC50: −log10 of the molar value.
ASSAY_ENDPOINT: pIC50

Known results for compounds:
> print(dat)
                                   compound  measured.result
1  O=C(Nc1ccc(OCc2ccc(OCCN3CCCCC3)cc2)c2ccccc12)NC1CCOCC1 [ID210127B-1]             5.46
2  O=C(NCc1ccccc1)Nc1ccc(OCc2ccc(OCCN3CCCCC3)cc2)c2ccccc12 [ID1120B-P, phosphate]             5.63
3  O=C(Nc1ccc(OCc2ccc(OCCN3CCCCC3)cc2)c2ccccc12)NC1CCCC1 [ID1217B-1]             4.14
4  O=C(NCc1ccc(C(F)(F)F)cc1)Nc1ccc(OCc2ccc(OCCN3CCCCC3)cc2)c2ccccc12 [IY210113D-1]             5.47
5  O=C(Nc1ccc(F)c(Cl)c1)Nc1ccc(OCc2ccc(OCCN3CCCCC3)cc2)c2ccccc12 [IY210105B-1]             4.36
6  O=C(NCc1ccc(OC(F)(F)F)cc1)Nc1ccc(OCc2ccc(OCCN3CCCCC3)cc2)c2ccccc12 [ID210118D-1]             4.43

1 = C[C@H](NC(=O)/C(C#N)=C/c1cccc(Br)n1)c1ccccc1 [WP1066, reference compound]
2 = O=C(Nc1ccc(OC(F)(F)F)c(Cl)c1)Nc1ccc(OCc2ccc(OCCN3CCCCC3)cc2)c2ccccc12 [ID1229C-1]
INPUT: Between 1 and 2 , which one shows the smaller pIC50 number? Write down the label of the entry you select.
OUTPUT: 2

A = O=C(NCc1ccc(Cl)cc1)Nc1ccc(OCc2ccc(OCCN3CCCCC3)cc2)c2ccccc12 [IY210113C-1]
B = COc1ccc(NC(=O)Nc2ccc(OCc3ccc(OCCN4CCCCC4)cc3)c3ccccc23)cc1OC [ID1224C-1]
INPUT: Field: lower recorded pIC50 (choose A or B ) Output the label that corresponds to your choice.
OUTPUT: B

a = O=C(NCc1cc(F)cc(F)c1)Nc1ccc(OCc2ccc(OCCN3CCCCC3)cc2)c2ccccc12 [IY210115B-1]
b = O=C(Nc1ncccc1Cl)Nc1ccc(OCc2ccc(OCCN3CCCCC3)cc2)c2ccccc12 [ID210119B-1]
INPUT: Looking only at measured pIC50, which entry is lower, a or b ? Refer to your chosen item by its label in the answer.
OUTPUT: b

* * *

Tested on: HepG2 cells
ASSAY: MTT proliferation assay, HepG2
Assay type: cell-based
MEASUREMENT_SETUP: Homo sapiens, HepG2, 48 h
ASSAY_ENDPOINT: IC50 (µM)

> print(dat)
                                   compound  target.of.assay  measured.result
1  O=C(Nc1ccc(OC(F)(F)F)cc1)Nc1ccc(OCc2ccc(OCCN3CCCCC3)cc2)c2ccccc12 [IY1214B-2]      HepG2 cells             3.85

I = O=C(NCc1ccc(Cl)c(C(F)(F)F)c1)Nc1ccc(OCc2ccc(OCCN3CCCCC3)cc2)c2ccccc12 [ID210114B-1]
II = COc1ccc(NC(=O)Nc2ccc(OCc3ccc(OCCN4CCCCC4)cc3)c3ccccc23)cc1Cl [IY1225B-1]
III = O=C(Nc1ccc(Cl)c(Cl)c1)Nc1ccc(OCc2ccc(OCCN3CCCCC3)cc2)c2ccccc12 [ID1214B-1]
IV = O=C(Nc1ccncc1)Nc1ccc(OCc2ccc(OCCN3CCCCC3)cc2)c2ccccc12 [IY210122C-1]
INPUT: Rank order required: IC50, descending. Reply format: the labels, ordered as requested.
OUTPUT: IV, I, II, III
(IV: 11 µM, I: 3.97 µM, II: 1.95 µM, III: 0.88 µM)

These measurements were taken from patent US20230271928A1.
